Target chain: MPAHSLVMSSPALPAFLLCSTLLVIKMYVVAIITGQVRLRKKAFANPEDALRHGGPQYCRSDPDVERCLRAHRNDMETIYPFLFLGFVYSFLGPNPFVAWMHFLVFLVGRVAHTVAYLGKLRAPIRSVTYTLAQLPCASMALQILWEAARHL
parameter_measured: IC50 (nM)

[
  {
    "smiles_notation": "NS(=O)(=O)c1ccccc1S(=O)(=O)NC(=O)c1ccc(C#Cc2ccccc2)c(OCCC(F)(F)F)c1",
    "scale_unit": "nM",
    "result_value": 6.2
  },
  {
    "smiles_notation": "Cc1ccc(C#Cc2ccc(C(=O)NS(=O)(=O)c3ccccc3S(N)(=O)=O)cc2OCCC(F)F)cc1",
    "scale_unit": "nM",
    "result_value": 7.8
  },
  {
    "smiles_notation": "NS(=O)(=O)c1ccccc1S(=O)(=O)NC(=O)c1cnc(C#Cc2ccc(C(F)(F)F)cc2)c(OCCC(F)(F)F)c1",
    "scale_unit": "nM",
    "result_value": 10
  },
  {
    "smiles_notation": "NS(=O)(=O)c1ccccc1S(=O)(=O)NC(=O)c1ccc(-c2cc3ccccc3o2)c(OCCC(F)(F)F)c1",
    "scale_unit": "nM",
    "result_value": 8.5
  },
  {
    "smiles_notation": "NS(=O)(=O)c1ccccc1S(=O)(=O)NC(=O)c1ccc(-c2cc3ccccc3o2)c(OCCOCC(F)(F)F)c1",
    "scale_unit": "nM",
    "result_value": 9.1
  }
]

P. NS(=O)(=O)c1ccccc1S(=O)(=O)NC(=O)c1ccc(-c2cc3ccccc3o2)c(OCC2CC2)c1
Q. CC(C)C#Cc1ccc(C(=O)NS(=O)(=O)c2ccccc2S(N)(=O)=O)cc1OC(F)(F)F
// query For this pair, P and Q , which shows a numerically higher IC50? Pick one and reply with its label.
// result Q
(Q: 28 nM, P: 5 nM)

I. Cc1cc(C(=O)NS(=O)(=O)c2ccccc2S(N)(=O)=O)ccc1C#CC(C)C
II. NS(=O)(=O)c1ccccc1S(=O)(=O)NC(=O)c1ccc(C#Cc2cccc(F)c2)cc1
III. NS(=O)(=O)c1ccccc1S(=O)(=O)NC(=O)c1ccc(C#CC2CCCC2)c(OCCCC(F)(F)F)c1
IV. NS(=O)(=O)c1ccccc1S(=O)(=O)NC(=O)c1ccc(C#Cc2ccc(Cl)cc2)cc1
// query Ascending sort, IC50. Labels, ranked as asked.
// result IV, II, III, I

I. CC(C)C#Cc1ncc(C(=O)NS(=O)(=O)c2ccccc2S(N)(=O)=O)cc1F
II. CC(C)C#Cc1ccc(C(=O)NS(=O)(=O)c2ccccc2S(N)(=O)=O)cc1OC(C)C
// query Please indicate which entry, I or II , has the lower recorded IC50 value. Pick one and reply with its label.
// result II
(II: 85 nM, I: 200 nM)

a. NS(=O)(=O)c1ccccc1S(=O)(=O)NC(=O)c1cnc(C#Cc2ccc(C(F)(F)F)cc2)c(F)c1
b. COc1cc(C(=O)NS(=O)(=O)c2ccccc2S(N)(=O)=O)ccc1C#Cc1cccc(C)c1
// query For this pair, a and b , which shows a numerically higher IC50? Pick one and reply with its label.
// result b
